Origin of values: patent US20250197368A1

Biological target: human α2β3γ2 GABAARs (benzodiazepine site) (Homo sapiens (Human), UniProt P18507+P47869)
Sequence (P47869 29-451): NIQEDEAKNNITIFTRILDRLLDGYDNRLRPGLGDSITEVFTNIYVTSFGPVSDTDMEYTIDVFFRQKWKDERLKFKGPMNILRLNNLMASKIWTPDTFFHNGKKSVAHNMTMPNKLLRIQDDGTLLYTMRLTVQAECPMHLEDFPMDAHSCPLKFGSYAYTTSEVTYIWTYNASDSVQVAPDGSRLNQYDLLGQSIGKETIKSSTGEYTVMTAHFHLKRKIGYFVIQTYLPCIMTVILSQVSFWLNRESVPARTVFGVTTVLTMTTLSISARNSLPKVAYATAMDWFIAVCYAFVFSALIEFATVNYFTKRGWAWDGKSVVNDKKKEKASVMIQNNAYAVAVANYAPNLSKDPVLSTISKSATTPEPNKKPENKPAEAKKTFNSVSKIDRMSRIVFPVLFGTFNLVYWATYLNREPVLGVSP
Sequence (P28472 26-473 partner): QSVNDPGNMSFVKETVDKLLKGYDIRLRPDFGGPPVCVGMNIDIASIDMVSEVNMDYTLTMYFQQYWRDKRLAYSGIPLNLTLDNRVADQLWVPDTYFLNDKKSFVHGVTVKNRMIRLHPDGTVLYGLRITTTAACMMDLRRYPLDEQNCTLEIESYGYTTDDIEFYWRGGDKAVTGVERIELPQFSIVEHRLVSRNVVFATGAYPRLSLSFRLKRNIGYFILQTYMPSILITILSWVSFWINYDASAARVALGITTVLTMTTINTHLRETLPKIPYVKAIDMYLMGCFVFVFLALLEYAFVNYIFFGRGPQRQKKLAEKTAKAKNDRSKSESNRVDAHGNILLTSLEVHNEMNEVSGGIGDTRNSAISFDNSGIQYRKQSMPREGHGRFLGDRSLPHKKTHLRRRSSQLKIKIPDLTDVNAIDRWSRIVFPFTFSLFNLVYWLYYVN
Sequence (P18507 40-475): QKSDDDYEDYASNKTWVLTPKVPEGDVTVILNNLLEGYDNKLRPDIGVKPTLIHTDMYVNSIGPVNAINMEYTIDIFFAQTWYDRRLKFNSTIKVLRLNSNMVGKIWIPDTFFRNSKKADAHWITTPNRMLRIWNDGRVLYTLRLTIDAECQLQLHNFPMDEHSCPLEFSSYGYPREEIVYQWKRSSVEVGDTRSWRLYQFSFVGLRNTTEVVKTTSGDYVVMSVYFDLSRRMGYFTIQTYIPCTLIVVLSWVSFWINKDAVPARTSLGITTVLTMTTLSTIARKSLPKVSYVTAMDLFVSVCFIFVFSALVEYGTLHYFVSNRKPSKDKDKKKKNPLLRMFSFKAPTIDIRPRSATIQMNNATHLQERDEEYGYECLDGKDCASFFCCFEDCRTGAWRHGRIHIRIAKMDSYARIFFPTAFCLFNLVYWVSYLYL
Assay: In vitro radioligand binding assay ([3H]Ro15-1788 displacement), α2-GABAAR Ki
Item-by-item account of log10 of Ki
Heads up: the numbers are on a log10 scale; they represent Ki in nM.

Guide cases for log10 of Ki, answers given:
CCCNC(=O)c1c(N)c2cccc(-c3cc(OCc4ccnnc4)ccc3F)c2[nH]c1=O : -0.39
CCCNC(=O)c1c(N)c2cccc(-c3cc(OCc4ccc(C)cn4)ccc3F)c2[nH]c1=O : -0.36
CCCNC(=O)c1c(N)c2cccc(-c3cncc(OCc4ccc(F)cn4)c3)c2[nH]c1=O : 0.82
COc1ccncc1-c1cccc2c(N)c(C(=O)NCCC(F)F)c(=O)[nH]c12 : 0.69

### Prompt Report log10 of Ki for CCCNC(=O)c1c(N)c2cccc(-c3ccnc(CO)c3)c2[nH]c1=O tested on human α2β3γ2 GABAARs (benzodiazepine site) (Homo sapiens (Human), UniProt P18507+P47869).
### Response 0.49

### Prompt Likewise for CCCNC(=O)c1c(N)c2cccc(-c3cc(OCc4cc(OC)ccn4)ccc3F)c2[nH]c1=O ?
### Response -1.15

### Prompt Likewise for CCCNC(=O)c1c(N)c2cccc(-c3cnccc3OC)c2n(C)c1=O ?
### Response 0.44

### Prompt Likewise for CCCNC(=O)c1c(N)c2cccc(-c3nc(COC)ccc3F)c2[nH]c1=O ?
### Response 0.18

---

Target: human α3β3γ2 GABAARs (benzodiazepine site) (Homo sapiens (Human), UniProt P18507+P34903)
Test: In vitro radioligand binding assay ([3H]Ro15-1788 displacement), α3-GABAAR Ki
Conditions: L(tk-) cell membranes, 4 nM [3H]Ro15-1788
Item-by-item account of pKi
Convention used: pKi is expressed as -log10 of the molar concentration.

Guide cases for pKi, answers given:
COc1ccncc1-c1cccc2c(N)c(C(=O)NCCC(F)(F)F)c(=O)[nH]c12 : 7.22
CCCNC(=O)c1c(N)c2cccc(-c3nc(C)ncc3F)c2[nH]c1=O : 8.30
CCCNC(=O)c1c(N)c2cccc(-c3cc(CN4CCC5(CCN(C)CC5)C4)ccc3F)c2[nH]c1=O : 8.00

### Prompt # input molecule: CCCNC(=O)c1c(N)c2cccc(-c3cc(OCc4ccccn4)ccc3F)c2[nH]c1=O ; wanted: its pKi
### Response 9.15

### Prompt Likewise for CCCNC(=O)c1c(N)c2cccc(-c3cc(OCc4csc(C)n4)ccc3F)c2[nH]c1=O ?
### Response 8.93

---

Item-by-item account of Ki
Target: human α2β3γ2 GABAARs (benzodiazepine site) (Homo sapiens (Human), UniProt P18507+P47869)
Assay: In vitro radioligand binding assay ([3H]Ro15-1788 displacement), α2-GABAAR Ki
Settings: L(tk-) cell membranes, 4 nM [3H]Ro15-1788; read-out: α2-GABAAR Ki
All answers are understood in nM, so give the number only.

Guide cases for Ki, answers given:
Cc1nn(C)cc1-c1cccc2c(N)c(C(=O)NCCCN(C)C)c(=O)[nH]c12 [Example 75] : 171
COc1ccncc1-c1cccc2c(N)c(C(=O)NC3COC3)c(=O)[nH]c12 [Example 58] : 154
CNC(=O)c1c(N)c2cccc(-c3cnccc3OC)c2[nH]c1=O [Example 55] : 159

### Prompt Report Ki for COc1ccncc1-c1cccc2c(N)c(C(=O)NCC(F)F)c(=O)[nH]c12 [Example 61] tested on human α2β3γ2 GABAARs (benzodiazepine site) (Homo sapiens (Human), UniProt P18507+P47869).
### Response 107

### Prompt Likewise for CCCNC(=O)c1c(N)c2cccc(-c3cnccc3OC(C)C)c2[nH]c1=O [Example 20] ?
### Response 245
